Hi there, I'd appreciate the recorded composite z-score for every entry that follows.
Protocol details: small-molecule microarray binders of probe aCHRDL2, primary screen, biochemical, biotinylated probe, 635/667 nm fluorescence (AID 1100)
Condition details: higher = more signal
No unit in the answer, only the number.

The reported value for C=C(C(=O)CC[C@H](OC(=O)c1ccccc1-c1ccccc1C(=O)O)c1ccccc1OCCO)C(C)C in terms of composite z-score is -0.459

// recorded composite z-score for COc1ccc(C#Cc2ccc3c(c2)[C@]2(C(=O)N3)[C@H](C(=O)N3CCCCCCC3)[C@H]3C(=O)O[C@H](c4ccccc4)[C@H](c4ccccc4)N3[C@@H]2c2ccc(O)cc2)cc1 : 0.696

composite z-score for O=C(CS)NCCCCCNC(=O)[C@@H]1C[C@@H]2C(=O)N[C@@H](Cc3ccccc3)C(=O)N2[C@@H]1c1cccc(OCCO)c1 is 0.0402

Measured composite z-score of O=C1O[C@H](c2ccccc2)[C@H](c2ccccc2)N2[C@H]1[C@@H](C(=O)N1CCCCCCC1)[C@]1(C(=O)Nc3ccc(C#CC4(O)CCCCCC4)cc31)[C@H]2c1ccccc1OCCO : 1.7

Note to self: composite z-score recorded for CCCCC(=C=CC[C@H](O)c1ccc(OCCO)cc1)C[C@H](O)c1cc(Cl)cc(Cl)c1O was 0.218

Memo: CCCNC(=O)[C@@]1(C)c2ccccc2C(=O)N(Cc2ccccc2)[C@H]1c1ccc(CO)cc1 , reported composite z-score: 0.963

Query C[C@@]12COC[C@]13C=C(Br)[C@H](C2)[C@@]1(CO1)C3=O yields composite z-score of 0.262

----------
Protocol details: A549 lung cancer cell viability effects, profiling panel, resazurin fluorescence, 24 h, PK04 Diversity Set (AID 1171); further: test concentration not given here
Condition details: higher = more signal, called active from +8 up or from −8 down
Calls of active or inactive are those of the source.
Recorded metric: z-score

Note to self: z-score recorded for O=C1C[C@@](C(=O)NCc2ccccc2)(c2ccc([N+](=O)[O-])cc2)[C@@H](c2ccc(CO)cc2I)N1CC12CC3CC(CC(C3)C1)C2 was -1.63 (inactive)

Notebook: C[C@@H]1ON(c2ccc(I)cc2)[C@H](c2ccc(OC(=O)OC(C)(C)C)cc2)[C@H]1C(=O)N1C(=O)OC[C@H]1Cc1ccccc1 , z-score read as 1.33 (inactive)

Given item COC(=O)[C@@]1(Cc2ccc(OC)cc2)[C@H]2c3cc(C(=O)N4CCCC4)n(Cc4cc(C)n(C)n4)c3C[C@H]2CN1C(=O)c1ccccc1 , the value recorded as its z-score is 0.0924 (inactive)

C=C(CCCC)C(=O)CC[C@H](OC(C)=O)c1ccc(OCCO)cc1 yielded z-score of 0.697 (inactive)

compound NCCCCCNC(=O)[C@H]1C[C@H]2C(=O)N[C@@H](Cc3ccccc3)C(=O)N2[C@H]1c1ccc(O)cc1 , z-score observed: 0.107 (inactive)

Form: compound = CN(C)CCCC[C@@H]1NC(=O)[C@@H]2C[C@H](C(=O)O)[C@H](c3cccc(OCCO)c3)N2C1=O ; z-score = 0.593 (inactive)

Reported z-score of C=CCNC(=O)[C@@H]1[C@H]2C(=O)O[C@H](c3ccccc3)[C@H](c3ccccc3)N2[C@H](c2ccc(O)cc2)[C@@]12C(=O)Nc1ccc(C#CCC(C(=O)OC)C(=O)OC)cc12 : -0.395 (inactive)
